# Tested On: UniProt:P48039
# Sequence (P48039 whole entry): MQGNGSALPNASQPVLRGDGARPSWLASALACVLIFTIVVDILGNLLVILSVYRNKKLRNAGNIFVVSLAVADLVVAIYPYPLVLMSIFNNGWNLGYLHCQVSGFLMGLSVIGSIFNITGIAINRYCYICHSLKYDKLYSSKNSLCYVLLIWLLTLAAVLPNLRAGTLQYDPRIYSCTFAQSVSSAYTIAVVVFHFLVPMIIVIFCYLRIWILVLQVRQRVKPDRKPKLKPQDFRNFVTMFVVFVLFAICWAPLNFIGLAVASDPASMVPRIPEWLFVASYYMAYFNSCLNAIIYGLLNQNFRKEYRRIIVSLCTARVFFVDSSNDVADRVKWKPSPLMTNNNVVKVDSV
# Test Description: Overall functionality from the signaling pathway panel
Value Kind: MT1 Our data (functionality)

Illustrative cases are given below, each with its answer.
>>> result("COc1ccc2cccc(CCNC(C)=O)c2c1 [Agomelatine, reference compound]")
"ago"
>>> result("COCC(CNC(C)=O)c1cccc2ccc(OC)cc12 (stereo not drawn) [S73893]")
"partial ago"
>>> result("CCC(=O)NC1Cc2ccccc2C(c2ccccc2)C1 (stereo not drawn) [4P‐PDOT, 4‐phenyl‐2‐propionamidotetraline, reference compound]")
"partial ago"
>>> result("COc1ccc2[nH]cc(CCNC(C)=O)c2c1 [Melatonin, N‐acetyl‐5‐methoxytryptamine, reference compound]")
"ago"
>>> result("COc1cc(I)c2[nH]cc(CCNC(C)=O)c2c1 [SD1918]")
"partial ago"

In: Can you look up the measured MT1 Our data (functionality) of COc1ccc2[nH]cc(CCNC(C)=O)c2c1I [SD1882] for me?
Out: partial ago

In: Can you look up the measured MT1 Our data (functionality) of CCc1ccc2scc(CCNC(C)=O)c2c1 [S22153] for me?
Out: partial ago
